- assayProtocol: ATP-evoked calcium inhibition in parental CHO, counter-screen for OX1R antagonist project, cell-based, fluorescence, CHO-K1, triplicate (AID 492965)
- studyConditions: parental CHO-K1, ATP-induced calcium, Fluo-8 fluorescence; at 5.6 µM
Out of some 1,100 compounds screened, about 100 (9.1%) were called active.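 How the source made its calls: active means inhibition above a per-plate limit, the mean inhibition of that plate's test compounds plus 3 SD (cut at about 25% in these data); inactive means the rest.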 The list is a sample of the results.
Possible outcomes: active, inactive

[[record]]
compound = "CCn1c(SCC(=O)c2ccc3ccccc3c2)nnc1-c1cccs1"
cat = "inactive"

[[record]]
compound = "CN(c1ccccc1)S(=O)(=O)c1cccc(NC(=O)Cc2ccc(Cl)cc2)c1"
cat = "inactive"

[[record]]
compound = "CCCN(CC(=O)Nc1ccccc1OC)C(=O)CCC(=O)c1ccc(F)cc1"
cat = "inactive"

[[record]]
compound = "Cc1ccc2c(C)c(C(=O)N(C)CCC3CCCCO3)oc2c1C (stereo unspecified)"
cat = "inactive"

[[record]]
compound = "CCCCC(=O)NNC(=S)NC(=O)C(c1ccccc1)c1ccccc1"
cat = "active"

[[record]]
compound = "CCCCCCCC(=O)NC(Nc1ccccc1OC)C(Cl)(Cl)Cl (stereo unspecified)"
cat = "inactive"

[[record]]
compound = "Cc1cc(C)cc(NC(=O)C2CCCN2S(=O)(=O)c2cccc3cccnc23)c1 (stereo unspecified)"
cat = "inactive"

[[record]]
compound = "Cn1c(N)c(C(=O)COC(=O)c2ccc3ccccc3c2)c(=O)n(C)c1=O"
cat = "inactive"

[[record]]
compound = "Cc1cc(N2CCCC2=O)cc(C)c1S(N)(=O)=O"
cat = "inactive"

[[record]]
compound = "CCOC(=O)N1CCN(C(=O)c2ccc(S(=O)(=O)Nc3cccc(C(F)(F)F)c3)cc2)CC1"
cat = "inactive"

[[record]]
compound = "COc1ccc(N2CC(C(=O)NCCN3C(=O)S/C(=C\\c4cccnc4)C3=O)CC2=O)c(OC)c1 (stereo unspecified)"
cat = "inactive"

[[record]]
compound = "C/C(N)=C(/C#N)C(=O)COC(=O)c1cc(-c2ccc(C)cc2)nc2ccccc12"
cat = "inactive"

[[record]]
compound = "O=C(Nc1cccc(NC(=O)N2CCN(c3ccccc3)CC2)c1)N1CCN(c2ccccc2)CC1"
cat = "inactive"

[[record]]
compound = "COc1cc2ccccc2cc1C(=O)Nc1ccc(N2CCOCC2)cc1"
cat = "inactive"

[[record]]
compound = "Cc1cccc(NC(=O)Nc2cccc(Oc3c(F)c(F)c(F)c(F)c3F)c2)c1"
cat = "active"

[[record]]
compound = "Nc1nc(COC(=O)CCC(=O)c2ccc(Cl)cc2)nc(Nc2ccccc2)n1"
cat = "inactive"

[[record]]
compound = "N/C(=N\\OC(=O)Nc1ccc(Cl)c(Cl)c1)c1ncc(C(F)(F)F)cc1Cl"
cat = "inactive"

[[record]]
compound = "O=C(Cn1[nH]c(=O)c2ccccc2c1=O)Nc1cccc(-c2nnc3n2CCCCC3)c1"
cat = "inactive"

[[record]]
compound = "N#CC(=C1SC=CS1)c1nc(-c2ccccc2)cs1"
cat = "inactive"

[[record]]
compound = "CC(=O)Nc1cccc(OCC(=O)/C=C2\\N(C)c3ccccc3C2(C)C)c1"
cat = "inactive"

[[record]]
compound = "CCOC(=O)c1c(-c2ccc(C)cc2C)csc1NC(=O)CSc1nnnn1C"
cat = "inactive"


# credit: PubChem BioAssay AID492965
